Ref: ChEMBL document CHEMBL5303573

assay: The drug is tested on Bifidobacterium ruminantium strain: fecal isolate for biotransformation. The drug concentrations were measured before and after a 12-h incubation by liquid-chromatography-coupled mass spectrometry (LC–MS); settings: 2 µM
endpointName: Bacterial Biotransformation

Study these solved cases before continuing.
CN1CCC(=C2c3ccccc3CC(=O)c3sccc32)CC1.O=C(O)/C=C/C(=O)O [KETOTIFEN FUMARATE] = Compound NOT metabolized
CNC(=C[N+](=O)[O-])NCCSCc1ccc(CN(C)C)o1 = Compound metabolized
O=c1[nH]c2ccccc2n1C1CCN(CCCC(c2ccc(F)cc2)c2ccc(F)cc2)CC1 [PIMOZIDE] = Compound NOT metabolized
O=C(O)CCC(=O)O.O=C(O[C@H]1CN2CCC1CC2)N1CCc2ccccc2[C@@H]1c1ccccc1 [SOLIFENACIN SUCCINATE] = Compound NOT metabolized
CN1C[C@H](C(=O)N[C@]2(C)O[C@@]3(O)[C@@H]4CCCN4C(=O)[C@H](Cc4ccccc4)N3C2=O)C=C2c3cccc4[nH]cc(c34)C[C@H]21.CN1C[C@H](C(=O)N[C@]2(C)O[C@@]3(O)[C@@H]4CCCN4C(=O)[C@H](Cc4ccccc4)N3C2=O)C=C2c3cccc4[nH]cc(c34)C[C@H]21.O=C(O)C(O)C(O)C(=O)O [ERGOTAMINE TARTRATE] = Compound metabolized
O=C(CCCN1CCC(O)(c2ccc(Cl)cc2)CC1)c1ccc(F)cc1 = Compound NOT metabolized
CN1CCC(=C2c3ccccc3CCc3cccnc32)CC1.O=C(O)/C=C\C(=O)O.O=C(O)/C=C\C(=O)O [AZATADINE MALEATE] = Compound NOT metabolized
COc1ccc(Cc2nccc3cc(OC)c(OC)cc23)cc1OC = Compound NOT metabolized
O=C(O)COCCN1CCN(C(c2ccccc2)c2ccc(Cl)cc2)CC1 (configuration not stated) = Compound NOT metabolized
C=CCN1CC[C@]23c4c5ccc(O)c4O[C@H]2C(=O)CC[C@@]3(O)[C@H]1C5 = Compound NOT metabolized

Ask: Requested read-out: Bacterial Biotransformation. Entry: CO[C@]12C[C@@H](COC(=O)c3cncc(Br)c3)CN(C)[C@@H]1Cc1cn(C)c3cccc2c13
Result: Compound NOT metabolized

Ask: Requested read-out: Bacterial Biotransformation. Entry: CC(CN(C)C)CN1c2ccccc2CCc2ccccc21.O=C(O)/C=C\C(=O)O (configuration not stated) [TRIMIPRAMINE MALEATE]
Result: Compound NOT metabolized

###

test: The drug is tested on Bacteroides fragilis strain: HMW610 for biotransformation. The drug concentrations were measured before and after a 12-h incubation by liquid-chromatography-coupled mass spectrometry (LC–MS); conditions: 2 µM
endpointName: Bacterial Biotransformation

CC(C)C[C@H]1C(=O)N2CCC[C@H]2[C@]2(O)O[C@](NC(=O)[C@@H]3C=C4c5cccc6[nH]c(Br)c(c56)C[C@H]4N(C)C3)(C(C)C)C(=O)N12.CS(=O)(=O)O [BROMOCRIPTINE MESYLATE] = Compound metabolized
Cc1cc(C)cc(OCC2CNC(=O)O2)c1 (stereo unspecified) = Compound metabolized
CCN(CC)CCNC(=O)c1ccc(NC(C)=O)cc1 [ACECAINIDE] = Compound NOT metabolized
Nc1ccc(/N=N/c2ccccc2)c(N)n1 = Compound metabolized
Nc1nc2ccc(OC(F)(F)F)cc2s1 = Compound metabolized

Proceeding to the next compound to report its Bacterial Biotransformation.
Ask: Requested read-out: Bacterial Biotransformation. Entry: COc1ccnc(C[S+]([O-])c2nc3ccc(OC(F)F)cc3[nH]2)c1OC (stereo unspecified)
Result: Compound metabolized
